# Test system: ACHN renal
# test: NCI tumour cell line growth inhibition, 48 h; in the data active means GI50 below about 0.43 µM; inactive means the rest
Returns: one label drawn from label 1 = active, label 0 = inactive

Worked examples, 3 compounds total:
COc1cc(OC)cc(-c2ccc(-c3ccc(C(=N)N)cn3)o2)c1 = label 0
C=C(CN1CCN(c2ccc(C(F)(F)F)cc2)CC1)c1ccc(C(=O)Nc2ccccc2N)cc1 = label 0
CSC(=NC#N)S/C=C/C(=O)c1ccccc1 = label 0

In this assay, the call recorded for C[C@@]1(C(=O)O)CCC[C@]2(C)C1CC[C@@]13C[C@@](O)(CC[C@]12O)[C@@]1(CO1)C3 (stereo partly specified) was what?
label 0

In this assay, the call recorded for CC/C=C\C[C@H](F)C/C=C1/C(=O)C=C[C@@H]1C/C=C\CCCC(=O)OC was what?
label 0

In this assay, the call recorded for N.N.N.N.N.NC(=O)[O-].[Co+3].[I-] was what?
label 0

In this assay, the call recorded for O=S(=O)(CCN1CCOCC1)Nc1cc(-c2ccc3ncnc(Nc4ccc(F)c(Cl)c4)c3c2)cnc1Cl was what?
label 0

In this assay, the call recorded for Cn1c(=O)c(Oc2ccc(F)cc2F)cc2cnc(NC(C)(C)CO)nc21 was what?
label 0

In this assay, the call recorded for NCCc1ccc(S(=O)(=O)F)cc1 was what?
label 0

In this assay, the call recorded for CCN(CC)CCCC(C)Nc1ccnc2cc(Cl)ccc12 (stereo unspecified) was what?
label 0

In this assay, the call recorded for O=C1/C=C/[C@@H](O)[C@@H]2C[C@@H](O)C[C@H]2/C=C/CCC[C@H](CCc2cccc3ccccc23)O1 was what?
label 1

FYI, the data here is from PubChem BioAssay (NCI).
